- Target or test system: bovine serum albumin (BSA) (bovine) (UniProt P02769)
- Sequence (P02769 25-607 limits assumed): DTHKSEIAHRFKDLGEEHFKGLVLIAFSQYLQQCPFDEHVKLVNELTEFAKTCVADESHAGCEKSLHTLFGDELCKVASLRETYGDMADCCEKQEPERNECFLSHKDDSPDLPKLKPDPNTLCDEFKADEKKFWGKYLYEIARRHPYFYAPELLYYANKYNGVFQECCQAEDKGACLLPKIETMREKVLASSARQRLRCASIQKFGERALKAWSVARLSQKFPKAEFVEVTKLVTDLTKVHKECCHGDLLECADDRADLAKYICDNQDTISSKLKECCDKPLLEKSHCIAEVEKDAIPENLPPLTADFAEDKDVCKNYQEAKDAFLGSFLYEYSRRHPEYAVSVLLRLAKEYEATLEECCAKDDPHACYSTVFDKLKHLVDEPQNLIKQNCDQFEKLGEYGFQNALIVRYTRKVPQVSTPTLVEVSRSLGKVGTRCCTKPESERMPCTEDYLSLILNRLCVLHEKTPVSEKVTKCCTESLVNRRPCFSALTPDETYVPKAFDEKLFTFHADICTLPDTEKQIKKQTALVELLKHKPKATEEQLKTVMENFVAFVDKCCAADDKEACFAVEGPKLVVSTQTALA
- Experiment summary: EIA, BSA background

- Binder: "HCV 208B-911 (antibody, V domains shown) VH: QVHLQQPGAELVRPGVSVKLSCKASGYTFTTYSINWMKQRPGQGLEWIGNIYPSTSHTNYNQKFRDKATMTVDKSSSTAYMQLSSPTSEDSAVYYCTINAYSMDYWGQGTSVTVSS VL: QIVLTQSPEIMSASPGEKVTITCSASSSVSFMYWFQQKPGTSPKLWIYITSNLASGVPTRFSGSGSGTSYSLTISRMEAEDAATYYCQQRSSFPYTFGGGTKLEMKR"
  OD (A492), OD: 1.17
- Binder: "HCV 208B-178 (antibody, V domains shown) VH: DVKLVESGGGLVKLGGSLKLSCAASGFTFSSYYMSWVRQTPEKRLELVAAINSNGGSTYYPDTVKGRFTISRDNAKNTLYLQMSSLKSEDTALYYCARHGGLGRRDWYFDVWGAGTTVTVSS VL: DIVLTQSPASLAVSLGQRATISCRASESVDNYGISFMHWYQQKPGQPPKLLIYRASNLESGIPARFSGSGSRTDFTLTINPVETDDVATYYCQQSNKDPFTFGSGAKLEIKR"
  OD (A492), OD: 0.07
